# Test system: HOP-62
# Procedure Text: NCI tumour cell line growth inhibition, 48 h
The source made the active and inactive calls. Cut-off read from the data, not from the text of the source: active = GI50 up to about 1.1 µM and inactive = higher.
The compounds listed here are annotated with their GI50.

Name the recorded GI50 of the compound listed here: "COc1ccc2cc(C(=O)c3ccccc3C(=O)O)ccc2c1"
> 100 µM (inactive)

* * *

# Tested on: UACC-62
# Procedure Text: NCI tumour cell line growth inhibition, 48 h
Calls of active or inactive are those of the source. No stated cut-off is given here; in the data, active = GI50 up to about 1.1 µM and inactive = higher.
Answer with one of the outcomes given here: True (active), False (inactive)

Examples from the recorded data:
1. O=C(O)CN1CCNCCNCC1 ... False
2. Nc1ccc2c(c1)C(=O)N(O)C2=O ... False

# outcome recorded in this test, key = "CC(C)/C(Cl)=N\OC(=O)Nc1ccc(F)cc1F"
False

Look up the recorded call for "NS(=O)(=O)c1ccc(/N=N/c2nc3[nH]cnc(=S)c3[nH]2)cc1" in this test.
True

Name the outcome recorded for C[N+](C)(C)CC1Cc2ccccc2C1=O (configuration not stated) in the assay.
False

For "COc1ccc(-c2oc3c(OC)c(OC)c(OC)c(O)c3c(=O)c2OC)cc1O" , what call appears in the results of this test?
True

Short answer needed: outcome of this test for CC(=O)O[C@]12CCCCC1C1(O)C(O)CCCCC12 (some centres not stated) ?
False
